Biological target: T1, human interleukin-23 receptor (IL23R) (human, UniProt Q5VWK5 24-355, limits assumed)
T1 construct: also called human IL23R
T1 sequence (looked up): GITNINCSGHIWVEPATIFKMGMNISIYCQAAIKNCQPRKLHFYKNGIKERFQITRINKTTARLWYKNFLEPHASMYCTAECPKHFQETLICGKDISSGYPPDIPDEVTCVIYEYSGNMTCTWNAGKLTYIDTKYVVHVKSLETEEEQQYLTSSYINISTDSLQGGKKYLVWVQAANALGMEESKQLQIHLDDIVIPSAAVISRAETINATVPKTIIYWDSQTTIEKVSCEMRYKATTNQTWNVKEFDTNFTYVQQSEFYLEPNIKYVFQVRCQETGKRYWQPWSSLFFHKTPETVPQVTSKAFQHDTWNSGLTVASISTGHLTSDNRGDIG
Assay: SPR; KD of the capped scFv over KD of its uncapped counterpart

>  <Binder>
Vκ1/VH1A consensus λ-capped, human IL23R specific scFv (scFv, scFv VL-linker-VH, made in E. coli; also called Vκ1VH1A capped) scFv: DIQMTQSPSSLSASVGDRVTITCQASENIYSFLAWYQQKPGKAPKLLIYSASKLAAGVPSRFSGSGSGTDFTLTISSLQPEDFATYYCQQTNRYSNPDIYNVFGGGTKLTVLGGGGGSGGGGSGGGGSGGGGSQVQLVQSGAEVKKPGSSVKVSCKASGIDFNSNYYMCWVRQAPGQGLEWMGCIYVGSHVNTYYANWAKGRVTITADESTSTAYMELSSLRSEDTAVYYCATSGSSVLYFKFWGQGTLVTVSS

>  <Ratio (capped/uncapped) of KD>
8.3

$$$$
>  <Binder>
Vκ1/VH1B consensus λ-capped, human IL23R specific scFv (scFv, scFv VL-linker-VH, made in E. coli; also called Vκ1VH1B capped) scFv: DIQMTQSPSSLSASVGDRVTITCQASENIYSFLAWYQQKPGKAPKLLIYSASKLAAGVPSRFSGSGSGTDFTLTISSLQPEDFATYYCQQTNRYSNPDIYNVFGGGTKLTVLGGGGGSGGGGSGGGGSGGGGSQVQLVQSGAEVKKPGASVKVSCKASGIDFNSNYYMCWVRQAPGQGLEWMGCIYVGSHVNTYYANWAKGRVTMTRDTSISTAYMELSSLRSEDTAVYYCATSGSSVLYFKFWGQGTLVTVSS

>  <Ratio (capped/uncapped) of KD>
1.2

$$$$

Source: patent US20230242651A1
